# assayedSystem: UniProt:P18090
# Sequence (P18090 whole entry, looked up): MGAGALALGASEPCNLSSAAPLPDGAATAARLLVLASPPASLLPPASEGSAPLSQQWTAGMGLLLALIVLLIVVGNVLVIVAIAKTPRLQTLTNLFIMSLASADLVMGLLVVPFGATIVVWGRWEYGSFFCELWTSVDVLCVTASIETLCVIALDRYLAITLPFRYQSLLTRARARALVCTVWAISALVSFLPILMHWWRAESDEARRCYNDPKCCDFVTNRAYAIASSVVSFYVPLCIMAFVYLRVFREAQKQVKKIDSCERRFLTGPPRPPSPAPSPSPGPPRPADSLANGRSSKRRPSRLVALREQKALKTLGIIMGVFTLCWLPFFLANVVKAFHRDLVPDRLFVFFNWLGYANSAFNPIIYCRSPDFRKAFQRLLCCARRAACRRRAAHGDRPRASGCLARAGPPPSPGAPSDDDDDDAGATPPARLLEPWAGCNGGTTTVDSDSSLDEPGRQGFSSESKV
# testDescription: Potency to block Beta-1 adrenergic receptor relative to labetolol
parameter: Relative potency

[I] C[C@@H](CCc1ccccc1)NC[C@@H](O)c1ccc(O)c(C(N)=O)c1.Cl
[II] C[C@H](CCc1ccccc1)NC[C@H](O)c1ccc(O)c(C(N)=O)c1.Cl [DILEVALOL HYDROCHLORIDE]
[III] CC(CCc1ccccc1)NCC(O)c1ccc(O)c(C(N)=O)c1 (centres undefined)
## Task Order required: smallest reported Relative potency first, largest last, for all molecules above. Answer format: the labels, in the requested order.
## Result I, III, II

====

Each item that follows carries a reported Heart rate.
# Test system: Rattus norvegicus
# testDescription: Change in Heart rate(beats/min) was determined after 3h of (10 mg/kg p.o.) administration in conscious, spontaneously hypertensive rats
# Assay type: functional
Respond numerically; units are beats min-1 and should not be typed.

                                   compound      assayedsystem   parameter  observedresult
0  C[C@@H](CCc1ccccc1)NC[C@H](O)c1ccc(O)c(C(N)=O)c1.Cl  Rattus norvegicus  Heart rate              -8
1  CC(CCc1ccccc1)NCC(O)c1ccc(O)c(C(N)=O)c1 (stereo not given)  Rattus norvegicus  Heart rate             -27
2  C[C@@H](CCc1ccccc1)NC[C@@H](O)c1ccc(O)c(C(N)=O)c1.Cl  Rattus norvegicus  Heart rate              -4

The reported value for C[C@H](CCc1ccccc1)NC[C@@H](O)c1ccc(O)c(C(N)=O)c1.Cl in terms of Heart rate is -34

The reported value for C[C@H](CCc1ccccc1)NC[C@H](O)c1ccc(O)c(C(N)=O)c1.Cl [DILEVALOL HYDROCHLORIDE] in terms of Heart rate is -55

====

Each item that follows carries a reported Change in BP.
# Test system: Rattus norvegicus
# testDescription: Change in blood-pressure was determined after 4 hr administration of (10 mg/kg/po) in conscious, spontaneously hypertensive rats(SHR)
# Format: functional
Respond numerically; units are mmHg and should not be typed.

Take a look at these entries with their results.
>>> df
                                   molecule  observedresult
0  CC(CCc1ccccc1)NCC(O)c1ccc(O)c(C(N)=O)c1 (centres undefined)             -20
1  C[C@@H](CCc1ccccc1)NC[C@H](O)c1ccc(O)c(C(N)=O)c1.Cl               8
2  C[C@@H](CCc1ccccc1)NC[C@@H](O)c1ccc(O)c(C(N)=O)c1.Cl               8

Moving on to another molecule below.
The reported value for C[C@H](CCc1ccccc1)NC[C@@H](O)c1ccc(O)c(C(N)=O)c1.Cl in terms of Change in BP is -3

====

# Tested on: Rattus norvegicus
# testDescription: Antihypertensive activity was determined before dosing in conscious, spontaneously hypertensive rats(SHR)
# Assay type: functional
Each item that follows carries a reported BP.
Respond numerically; units are mmHg and should not be typed.

Take a look at these entries with their results.
                                   compound      assayedsystem  parameter  observedresult
0  C[C@@H](CCc1ccccc1)NC[C@H](O)c1ccc(O)c(C(N)=O)c1.Cl  Rattus norvegicus         BP             164
1  C[C@@H](CCc1ccccc1)NC[C@@H](O)c1ccc(O)c(C(N)=O)c1.Cl  Rattus norvegicus         BP             159

The reported value for C[C@H](CCc1ccccc1)NC[C@@H](O)c1ccc(O)c(C(N)=O)c1.Cl in terms of BP is 158

The reported value for C[C@H](CCc1ccccc1)NC[C@H](O)c1ccc(O)c(C(N)=O)c1.Cl [DILEVALOL HYDROCHLORIDE] in terms of BP is 160

The reported value for CC(CCc1ccccc1)NCC(O)c1ccc(O)c(C(N)=O)c1 (stereo not given) [LABETALOL] in terms of BP is 160
